# protocolSummary: Oral bioavailability in Sprague-Dawley rat at 5 mg/kg
# Type: ADME, organism-based
# conditionContext: in vivo
quantityKind: bioavailability (%)
Numbers only, in %.

What does the data say about its bioavailability? Entry: CN(c1ccccc1-c1cc(Cl)c2cnc(Nc3ccc(C4CCN(CC(N)=O)CC4)cc3)nn12)S(C)(=O)=O
12

----------
# targetUnderTest: UniProt Q05397
# protocolSummary: Inhibition of human recombinant FAK expressed in baculovirus expression system after 30 mins by time resolved fluorescence assay
Would you kindly list pIC50 for each of these molecules?
Answers are plain numbers, as −log10 of the molar value.

Please review the following examples before continuing.
Write down the reported pIC50 of CS(=O)(=O)Nc1cccc(-c2ccc3cnc(Nc4ccc(C5CCN(CC(N)=O)CC5)cc4)nn23)c1 , test system: UniProt Q05397.
7.68

Input CN(c1cccc(-c2ccc3cnc(Nc4ccc(C5CCN(CC(N)=O)CC5)cc4)nn23)c1)S(C)(=O)=O
7.32

Input CS(=O)(=O)N1Cc2cccc(-c3ccc4cnc(Nc5ccc(C6CCN(CC(N)=O)CC6)cc5)nn34)c2C1
6.69

Input COc1cc(C2CCN(CC(N)=O)CC2)ccc1Nc1ncc2ccc(-c3ccccc3OC)n2n1
7.68

Continue with the next molecule.
Write down the reported pIC50 of COc1ccccc1-c1ccc2cnc(Nc3ccc(C4CCN(CC(N)=O)CC4)cc3)nn12 , test system: UniProt Q05397.
7.26

----------
# targetUnderTest: Focal adhesion kinase 1 (Homo sapiens, UniProt Q05397)
# Sequence (Q05397 whole entry): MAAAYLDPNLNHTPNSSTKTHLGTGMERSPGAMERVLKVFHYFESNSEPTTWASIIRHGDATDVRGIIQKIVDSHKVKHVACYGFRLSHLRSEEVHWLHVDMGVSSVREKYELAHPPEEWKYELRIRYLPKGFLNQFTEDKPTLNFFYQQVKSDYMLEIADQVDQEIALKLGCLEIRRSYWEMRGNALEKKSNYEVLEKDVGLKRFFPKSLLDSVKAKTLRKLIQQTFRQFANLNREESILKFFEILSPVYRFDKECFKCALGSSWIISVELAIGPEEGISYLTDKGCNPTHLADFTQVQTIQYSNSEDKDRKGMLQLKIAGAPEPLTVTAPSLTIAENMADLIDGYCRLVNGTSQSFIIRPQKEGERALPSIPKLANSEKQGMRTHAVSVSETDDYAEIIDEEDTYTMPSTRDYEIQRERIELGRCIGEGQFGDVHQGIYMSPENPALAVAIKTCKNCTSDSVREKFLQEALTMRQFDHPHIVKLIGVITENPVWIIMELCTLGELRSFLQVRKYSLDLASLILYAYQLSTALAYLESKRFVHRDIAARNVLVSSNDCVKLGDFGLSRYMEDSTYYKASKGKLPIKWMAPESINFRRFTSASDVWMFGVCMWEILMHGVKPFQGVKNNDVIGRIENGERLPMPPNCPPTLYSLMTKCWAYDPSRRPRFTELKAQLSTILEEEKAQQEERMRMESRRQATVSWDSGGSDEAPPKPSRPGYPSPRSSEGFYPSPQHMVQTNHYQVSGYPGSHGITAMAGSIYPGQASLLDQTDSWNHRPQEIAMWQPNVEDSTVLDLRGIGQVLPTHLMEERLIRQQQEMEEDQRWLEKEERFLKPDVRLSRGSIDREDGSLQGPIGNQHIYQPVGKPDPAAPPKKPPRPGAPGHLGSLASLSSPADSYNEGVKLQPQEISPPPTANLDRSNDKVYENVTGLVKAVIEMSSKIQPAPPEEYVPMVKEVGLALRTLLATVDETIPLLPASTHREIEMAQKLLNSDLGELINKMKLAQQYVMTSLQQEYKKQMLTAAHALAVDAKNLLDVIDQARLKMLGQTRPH
# protocolSummary: Inhibition of human recombinant FAK expressed in baculovirus expression system after 30 mins by time resolved fluorescence assay
Would you kindly list pIC50 for each of these compounds?
Answers are plain numbers, as −log10 of the molar value.

For every item in the list below, what is its measured pIC50?
1. NC(=O)CN1CCC(c2ccc(Nc3ncc4ccc(-c5cccc6c5OC(F)(F)O6)n4n3)cc2)CC1
2. Cc1cc(-c2ccccc2N(C)S(C)(=O)=O)n2nc(Nc3ccc(C4CCN(CC(N)=O)CC4)cc3)ncc12
3. COc1ccc(-c2ccc3cnc(Nc4ccc(C5CCN(CC(N)=O)CC5)cc4)nn23)cn1
4. NC(=O)CN1CCC(c2ccc(Nc3ncc4ccc(-c5cnccn5)n4n3)cc2)CC1
5. CN(c1ccccc1-c1cc(Cl)c2cnc(Nc3ccc(C4CCN(CC(N)=O)CC4)cc3)nn12)S(C)(=O)=O
6. CC(C)(C)NS(=O)(=O)c1cccc(-c2ccc3cnc(Nc4ccc(C5CCN(CC(N)=O)CC5)cc4)nn23)c1
7. CN(c1ccccc1-c1ccc2cnc(Nc3ccc(C4CCN(CC(N)=O)CC4)cc3)nn12)S(C)(=O)=O

1: 6.91; 2: 7.96; 3: 7.41; 4: 6.26; 5: 8.30; 6: 8.24; 7: 7.85

For every item in the list below, what is its measured pIC50?
1. NC(=O)CN1CCC(c2ccc(Nc3ncc4ccc(-c5cccc(CO)c5)n4n3)cc2)CC1
2. CS(=O)(=O)c1ccc(-c2ccc3cnc(Nc4ccc(C5CCN(CC(N)=O)CC5)cc4)nn23)cc1

7.48
6.94

----------
# protocolSummary: Tmax in Sprague-Dawley rat at 5 mg/kg, po
# Format: ADME, organism-based
# Set-up: dose 5 mg/kg, route oral
# conditionContext: in vivo
quantityKind: Tmax (h)
Answers are plain numbers, in h.

What does the data say about its Tmax? Entry: CN(c1ccccc1-c1cc(Cl)c2cnc(Nc3ccc(C4CCN(CC(N)=O)CC4)cc3)nn12)S(C)(=O)=O
2.2

----------
# targetUnderTest: Tyrosine-protein kinase JAK2 (Homo sapiens)
# Sequence (O60674 whole entry): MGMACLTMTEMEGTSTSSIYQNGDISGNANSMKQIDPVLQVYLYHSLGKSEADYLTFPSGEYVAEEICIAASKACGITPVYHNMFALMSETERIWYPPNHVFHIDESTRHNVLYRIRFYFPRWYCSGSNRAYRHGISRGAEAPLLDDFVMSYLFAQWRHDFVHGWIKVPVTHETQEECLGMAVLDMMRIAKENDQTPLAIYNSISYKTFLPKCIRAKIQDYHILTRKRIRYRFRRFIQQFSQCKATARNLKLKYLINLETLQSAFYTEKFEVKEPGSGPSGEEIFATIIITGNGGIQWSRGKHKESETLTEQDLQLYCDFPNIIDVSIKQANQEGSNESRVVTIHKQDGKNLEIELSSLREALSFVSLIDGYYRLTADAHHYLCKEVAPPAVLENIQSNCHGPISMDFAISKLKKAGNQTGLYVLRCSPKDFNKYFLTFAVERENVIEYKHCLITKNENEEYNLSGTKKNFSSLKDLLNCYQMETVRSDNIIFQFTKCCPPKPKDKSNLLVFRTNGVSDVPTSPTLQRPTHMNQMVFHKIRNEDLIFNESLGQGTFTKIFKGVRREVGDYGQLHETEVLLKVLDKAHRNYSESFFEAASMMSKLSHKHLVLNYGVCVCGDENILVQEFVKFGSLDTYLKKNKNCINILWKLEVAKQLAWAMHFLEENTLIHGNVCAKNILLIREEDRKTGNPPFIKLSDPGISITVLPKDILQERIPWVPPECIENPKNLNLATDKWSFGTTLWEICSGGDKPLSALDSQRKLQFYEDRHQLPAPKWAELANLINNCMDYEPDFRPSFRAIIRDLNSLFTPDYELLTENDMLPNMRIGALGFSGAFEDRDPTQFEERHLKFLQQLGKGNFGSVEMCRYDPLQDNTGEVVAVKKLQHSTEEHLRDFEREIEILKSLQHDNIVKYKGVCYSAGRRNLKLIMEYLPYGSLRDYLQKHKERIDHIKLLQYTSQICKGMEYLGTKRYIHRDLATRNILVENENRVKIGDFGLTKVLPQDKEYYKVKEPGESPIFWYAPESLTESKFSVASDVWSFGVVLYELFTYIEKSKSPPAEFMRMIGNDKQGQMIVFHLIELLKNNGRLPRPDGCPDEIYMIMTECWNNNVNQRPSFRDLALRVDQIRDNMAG
# protocolSummary: Inhibition of human recombinant JAK2 expressed in baculovirus expression system after 20 mins by time resolved fluorescence assay
Would you kindly list IC50 for each of these compounds?
Answers are plain numbers, in nM.

Please review the following examples before continuing.
What does the data say about its IC50? Entry: NC(=O)CN1CCC(c2ccc(Nc3ncc4ccc(-c5cnccn5)n4n3)cc2)CC1
8.9

Input NC(=O)CN1CCC(c2ccc(Nc3ncc4ccc(-c5cccc6cccnc56)n4n3)cc2)CC1
6.3

Continuing:
What does the data say about its IC50? Entry: NC(=O)CN1CCC(c2ccc(Nc3ncc4ccc(-c5cccc6c5OC(F)(F)O6)n4n3)cc2)CC1
13
